biological target: human glucagon-like peptide 1 receptor (human, UniProt P43220 24-463); test: cell-based or functional assay
Where no end group is shown, it is not given here. [ ]: non-standard residue; d: D form. Aib = CC(C)(N)C(=O)O

BINDER	hGLP-1R CRE Luc EC50 (pM)
H[Aib]HGTFTSDYSILLEKQAAREFVQWLLEGGPSSGAPPPS-OH (not fully specified (residue 16); printed as H-Aib-HGTFTSDYSILLE-K[(2S)-2-amino-6-[[(2S)-2-amino-6-[[(4S)-4-carboxy-4-(17-carboxyheptadecanoylamino)butanoyl]amino]hexanoyl]amino]hexanoyl]-QAAREFVQWLLEGGPSSGAPPPS-OH) [Compound No. 54]	1.5 pM
Y[Aib]QGTFTSDYSIYLDKKAA[Aib]EFVNWLLAGGPSSGAPPPS-NH2 (not fully specified (residue 17); printed as Y-Aib-QGTFTSDYSIYLDK-K[2-[2-[2-[[2-[2-[2-[[(4S)-4-carboxy-4-(19-carboxynonadecanoylamino)butanoyl]amino]ethoxy]ethoxy]acetyl]amino]ethoxy]ethoxy]acetyl]-AA-Aib-EFVNWLLAGGPSSGAPPPS-NH2) [Compound No. 9]	4.4 pM
H[Aib]HGTFTSDYSIYLDKQAA[Aib]EFVQWLLEGGPSSGAPPPS-NH2 (not fully specified (residue 16); printed as H-Aib-HGTFTSDYSIYLD-K[(2S)-2-amino-6-[[(2S)-2-amino-6-[[(4S)-4-carboxy-4-(19-carboxynonadecanoylamino)butanoyl]amino]hexanoyl]amino]hexanoyl]-QAA-Aib-EFVQWLLEGGPSSGAPPPS-NH2) [Compound No. 28]	4.5 pM
